assay: Oral bioavailability in rat at 20 mg/kg; assay type: ADME, organism-based; details: in vivo
Value kind: bioavailability (%)

>>> print(df.to_string())
                            molecule_smiles       value_kind  numeric_value
0  CNC(=O)c1ccc2c(c1)c1c(n2CCCNc2nc(OC)cc(OC)n2)CCCC1  bioavailability            0.8

(A) COc1cc(OC)nc(NCCCn2c3c(c4cc(C(=O)N(C)C)ccc42)CCCC3)n1
(B) COc1cc(OC)nc(NCCCn2c3c(c4cc(C(=O)OC(C)C)ccc42)CCCC3)n1
I would appreciate it if you could say which entry, A or B , has the lower bioavailability value. Your choice should be expressed through its label. A

====

system: Hepatitis C virus; assay: Antiviral activity against chronic Hepatitis C virus type 2a infected in human HuH7 cells by Renilla luciferase reporter gene assay; type: functional, organism-based, Hepacivirus hominis; details: genotype 2a, Huh-7
Value kind: IC50 (µM)

>>> df
                            molecule_smiles  value_kind  numeric_value
0  COC(=O)c1ccc2c(c1)c1c(n2CCCNS(=O)(=O)C(C)C)CCCC1        IC50           0.05
1  COC(=O)c1ccc2c(c1)c1c(n2CCCNc2nc(OC)nc(OC)n2)CCCC1        IC50          0.015
2  COC(=O)c1ccc2c(c1)c1c(n2CCCNc2nccc(OC)n2)CCCC1        IC50          0.015

(I) COC(=O)c1ccc2c(c1)c1c(n2CCCS(=O)(=O)N2CCOCC2)CCCC1
(II) CCN(CC)C(=O)c1ccc2c(c1)c1c(n2CCCNc2nc(OC)cc(OC)n2)CCCC1
(III) COC(=O)c1ccc2c(c1)c1c(n2CCCNc2cc(C)nc(Cl)n2)CCCC1
(IV) COC(=O)c1ccc2c(c1)c1c(n2C2CCN(c3nc(OC)cc(OC)n3)CC2)CCCC1
Ordering criterion: IC50; begin with the maximum. // respond by listing labels in the order requested IV, II, III, I
